// IC50 lookup, one value per entry
target: human SGLT1 (Homo sapiens (Human)); experiment: SGLT1 inhibitory activity: intracellular uptake of 14C-AMG in human SGLT1-stably-expressing CHO-K1 cell line; settings: human SGLT1-stably-expressing CHO-K1 cells, 14C-AMG uptake; read-out: hSGLT1 IC50
Sequence (P13866 whole entry): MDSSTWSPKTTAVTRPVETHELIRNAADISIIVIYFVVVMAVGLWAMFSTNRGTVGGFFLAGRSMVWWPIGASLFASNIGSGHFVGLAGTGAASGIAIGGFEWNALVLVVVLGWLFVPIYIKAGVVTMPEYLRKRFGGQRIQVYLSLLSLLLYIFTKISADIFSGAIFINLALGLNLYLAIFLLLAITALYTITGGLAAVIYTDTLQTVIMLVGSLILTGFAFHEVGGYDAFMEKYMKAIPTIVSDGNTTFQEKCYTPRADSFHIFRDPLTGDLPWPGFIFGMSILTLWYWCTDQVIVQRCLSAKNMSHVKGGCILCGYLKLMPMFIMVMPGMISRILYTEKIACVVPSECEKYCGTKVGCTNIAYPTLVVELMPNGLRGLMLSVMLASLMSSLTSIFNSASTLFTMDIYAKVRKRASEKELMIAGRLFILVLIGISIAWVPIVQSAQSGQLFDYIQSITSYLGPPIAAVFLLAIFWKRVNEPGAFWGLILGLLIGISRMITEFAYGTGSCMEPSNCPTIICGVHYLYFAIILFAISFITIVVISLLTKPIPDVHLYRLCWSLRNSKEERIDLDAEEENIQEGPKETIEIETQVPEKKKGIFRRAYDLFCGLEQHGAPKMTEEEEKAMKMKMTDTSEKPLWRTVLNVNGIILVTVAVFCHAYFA
Numeric answer only, unit nM assumed.

{"querySmiles": "C[C@H]1C(=O)NC[C@@H]1C(=O)Nc1cc(-c2cc(F)cc(OC(F)(F)F)c2)n(-c2cnc(C(F)(F)F)nc2)n1", "targetUnderTest": "human SGLT1 (Homo sapiens (Human))", "IC50 (nM)": 30}

So, C[C@H]1C(=O)NC[C@@H]1C(=O)Nc1cc(-c2cc(F)cc(OC(C)(C)C(F)(F)F)c2)n(-c2cncc(Cl)c2)n1 ? Its IC50 was 1.3

Reported IC50 ( C[C@H]1C(=O)NC[C@@H]1C(=O)Nc1cc(-c2cccc(OC(F)(F)F)c2)n(-c2cncc(F)c2)n1 ) = 22

Data point: C[C@H]1C(=O)NC[C@@H]1C(=O)Nc1cc(-c2cc(F)cc(OCC(F)(F)F)c2)n(-c2cncc(C(F)(F)F)c2)n1 ; IC50 = 5.7

###

The following molecules are listed with their measured pIC50 values.
target: UniProtKB P13866; assay: SGLT1 inhibitory activity: intracellular uptake of 14C-AMG in human SGLT1-stably-expressing CHO-K1 cell line; details: human SGLT1-stably-expressing CHO-K1 cells, 14C-AMG uptake; read-out: hSGLT1 IC50
Scale: negative log10 of molar concentration, which is what pIC50 denotes.

Recorded pIC50, per entry:
{"querySmiles": "C[C@H]1C(=O)NC[C@@H]1C(=O)Nc1cc(-c2cc(F)cc(OC(C)(C)C(F)(F)F)c2)n(-c2nccnc2C(F)(F)F)n1", "experimentalValue": 7.54}
{"querySmiles": "C[C@H]1C(=O)NC[C@@H]1C(=O)Nc1cc(-c2cc(F)cc(OCC(F)(F)F)c2)n(-c2ccc(C(F)(F)F)nc2)n1", "experimentalValue": 8.23}

pIC50 value, target or system UniProtKB P13866, for C[C@H]1C(=O)NC[C@@H]1C(=O)Nc1cc(-c2cc(F)cc(OCC(F)(F)F)c2)n(-c2cnc(C(F)(F)F)nc2)n1 : 8.24

Test item C[C@H]1C(=O)NC[C@@H]1C(=O)Nc1cc(-c2cc(F)cc(OC(F)(F)F)c2)n(-c2cncc(F)c2)n1 ; UniProtKB P13866; reported pIC50 was 7.85

Per the reported UniProtKB P13866 data, C[C@H]1C(=O)NC[C@@H]1C(=O)Nc1cc(-c2cc(F)cc(OC(F)(F)F)c2)n(-c2cncc(Cl)c2)n1 has pIC50 of 8.57

Assay UniProtKB P13866, sample C[C@H]1C(=O)NC[C@@H]1C(=O)Nc1cc(-c2cccc(OC(F)(F)F)c2)n(-c2cncc(C(F)(F)F)c2)n1 , pIC50 read: 7.77

pIC50 value, target or system UniProtKB P13866, for C[C@H]1C(=O)NC[C@@H]1C(=O)Nc1cc(-c2cc(F)cc(OC(C)(C)C(F)(F)F)c2)n(-c2cccnc2C(F)(F)F)n1 : 8.37

Let me check: C[C@H]1C(=O)NC[C@@H]1C(=O)Nc1cc(-c2cc(F)cc(OC(F)(F)F)c2)n(-c2ccc(C(F)(F)F)nc2)n1 , system UniProtKB P13866, measured pIC50 is 8.14

Observed pIC50 on UniProtKB P13866, entry Cc1ncc(-n2nc(NC(=O)[C@H]3CNC(=O)[C@@H]3C)cc2-c2cc(F)cc(OC(C)(C)C(F)(F)F)c2)cn1 , equals 8.40

Item: C[C@H]1C(=O)NC[C@@H]1C(=O)Nc1cc(-c2cc(F)cc(OC(C)(C)C(F)(F)F)c2)n(-c2cnccc2C#N)n1 | System: UniProtKB P13866 | pIC50: 8.43

Sample C[C@H]1C(=O)NC[C@@H]1C(=O)Nc1cc(-c2cccc(OC(F)(F)F)c2)n(-c2cncc(Cl)c2)n1 , system: UniProtKB P13866. Its pIC50 is 8.05
